system: SF-539 CNS; experiment: NCI-60 one-dose screen, 48 h; conditions: 10 µM unless noted
About 83,000 compounds went through this panel and 20% of them were active in at least one assay; those are over-represented in the sample as a whole. Active and inactive are the calls of the source. The calls were made as follows: active = growth percent below 10; inactive = the rest.
Classes to choose from: true (active), false (inactive)

Below are worked cases with known answers.
CN[C@]12CC3(C=CC(=O)C=C3)O[C@@]1(Cc1ccc(OC)cc1)N(C)C(=O)N2 = false
CCNc1nc(-c2ccc(Cl)c(OC)c2)c(-c2ccnc(NCCCNS(=O)(=O)c3ccc(Cl)cc3)n2)s1 = false
O=C(c1ccc(-c2ccccc2)cc1)c1ccc([N+](=O)[O-])cc1 = false
CC1(c2ccccc2O)NN=C(/N=C/c2cccc([N+](=O)[O-])c2)N1C(Cc1c[nH]c2ccccc12)C(=O)O (stereo not drawn) = false
CN(C)CC(=O)Nc1ccc2ncnc(Nc3ccc(Oc4cccc(C(F)(F)F)c4)c(Cl)c3)c2c1 = false

Ask | I would be grateful if you could indicate the recorded call for `COc1ccc2[nH]cc(-c3nc(-c4cn(C)c5c(Cl)nccc45)cs3)c2c1` .
Reply | false

Ask | Assay result, entry `O=C(Nc1cc(Cl)ccc1O)c1ccc(Nc2ccnc(C(F)(F)F)c2)cc1` — outcome?
Reply | false

Ask | Fill in: this test's call for `COc1ccc(C(=O)Nc2ncc(Cc3ccc(F)cc3)s2)cc1` is ___
Reply | true

Ask | What did the test return for `Cn1cc(-c2csc(-c3c[nH]c4ccc(Br)cc34)n2)c2cnccc21` ?
Reply | true

Ask | Outcome? `O=C1c2cccc(NCCN=Cc3cc(O)ccc3O)c2C(=O)c2c(NCCN=Cc3cc(O)ccc3O)cccc21`
Reply | true

Ask | For CC[C@@H](C(=O)[C@@H](C)[C@@H](O)[C@H](C)[C@@H]1O[C@@H]([C@@H](CC)C(=O)NCCc2ccc(F)cc2)CC[C@@H]1C)C1O[C@]2(C=CC(=O)[C@]3(CC[C@@](C)([C@H]4CC[C@](O)(CC)[C@H](C)O4)O3)O2)[C@H](C)C[C@@H]1C (stereo partly drawn) , what call appears in the results of this test?
Reply | false

Ask | GET /call?item= CSc1nnc(-c2cnn3c2NC(c2ccccc2)C3)n1-c1ccc(C(F)(F)F)cc1 (stereo not drawn) returns the recorded outcome of this test.
Reply | false

###

tested on: SNB-19 CNS; assay: NCI-60 one-dose screen, 48 h (100 = growth as untreated, 0 = no growth, -100 = all killed); settings: 10 µM unless noted
The panel holds about 83,000 compounds, 20% with a hit somewhere; the sample as a whole holds those more often.
PROPERTY MEASURED: growth (%)
// units = %; emit number, no label

O=[N+]([O-])c1ccc(N/N=C(/C(=N/Nc2ccc([N+](=O)[O-])cc2)c2ccccc2)c2ccccc2)cc1 = 93.3
COc1ccc(C/C(C)=C(/c2ccc(OCCN3CCCCC3)cc2)c2ccc(OC(=O)NCc3ccccc3)cc2)cc1 = -90.6
CC(C)=NNc1ccccn1 = 62.3

Ask | Input `O=C(Nc1cc(Cl)ccc1O)c1ccc(Nc2ccnc(C(F)(F)F)c2)cc1` , output reported growth.
Reply | 24.6

Ask | Consider the compound `O=c1oc2ccccc2cc1C1=NN=C(SCc2ccccc2)SC1` . State its measured growth.
Reply | 103

Ask | Provide growth value for the following compound: Nc1ncnc2c1N=C(c1ccc3c(c1)OCO3)CC(c1cccc(Nc3ccnc4cc(Cl)ccc34)c1)N2 (stereo not given)
Reply | 58.2

###

system: UACC-62 melanoma; assay: NCI-60 one-dose screen, 48 h (100 = growth as untreated, 0 = no growth, -100 = all killed); conditions: 10 µM unless noted
This is part of a sample that, as a whole, favours compounds with a hit. Of some 83,000 tested, about 20% had one in any assay.
PROPERTY MEASURED: growth (%)
Just the number please, in %, no unit attached.

The following compounds have reported results that may help.
CC(C)OC(=O)c1ccc2[nH]c(O)c(C(=Nc3ccc(N(C)C(=O)CN4CCN(C)CC4)cc3)c3ccccc3)c2c1 = -44.1
CCc1ccc(C(=O)/C=C/C23c4ccccc4C(c4ccccc42)C2C(=O)NC(=O)C23)cc1 (stereo not given) = -6.86
CCS/C(Nc1ccccc1)=C(\C#N)C(=O)N/N=C/c1ccc(Cl)cc1Cl = 26.6
Cn1ccnc1C(=O)C(=O)Nc1ccc(CC(=O)Nc2ccccc2)cc1 = 95.5

Ask | Given `CN(C)CC(=O)Nc1ccc2ncnc(Nc3ccc(Oc4cccc(C(F)(F)F)c4)c(Cl)c3)c2c1` , respond with its growth.
Reply | 88.2

###

tested on: MDA-MB-231 breast; assay: NCI-60 one-dose screen, 48 h (100 = growth as untreated, 0 = no growth, -100 = all killed); settings: 10 µM unless noted
The panel holds about 83,000 compounds, 20% with a hit somewhere; the sample as a whole holds those more often.
PROPERTY MEASURED: growth (%)
Expressed in %, but write only the number.

Use the examples below as a reference point.
COc1ccc(C(=O)Nc2ncc(Cc3cccc(Cl)c3)s2)cc1OC = 39.1
Cc1ccc2c(n1)C(=O)c1[nH]c3ccccc3c1C2=O = 32.1
Oc1ccc(CN2CCC(N3CCCCC3)CC2)c2cccnc12 = 15.2
OCCCC1CCN(C(Cc2ccccc2)c2ccccc2)CC1 (centres undefined) = 97.8
Cn1c(O)c(C=NCCN=Cc2c(O)n(C)c(=O)n(C)c2=O)c(=O)n(C)c1=O = 101
C=C1C(=O)O[C@H]2[C@H]1CC/C(COC(=O)N[C@H]1C[C@H](O[C@H]3C[C@](O)(C(=O)CO)Cc4c(O)c5c(c(O)c43)C(=O)c3c(OC)cccc3C5=O)O[C@@H](C)[C@H]1O)=C\CC[C@@]1(C)O[C@@H]21 = 11

Ask | Check the records and state growth for `Cc1nnc(-n2c(O)cc(=O)n(-c3ccccc3)c2=S)nc1/C=C/c1ccc(N(C)C)cc1`
Reply | 45.6

Ask | Fill in growth for record CCn1cc(C(=O)N/N=C/c2cccs2)c(=O)c2cc(F)c(N3CCNC(C)C3)c(F)c21 (centres undefined)
Reply | 41

Ask | Let me know recorded growth for `S=C1CCSC(=S)N1CCCN1C(=S)CCSC1=S` , thanks.
Reply | 75.3

###

test system: COLO 205 colon; assay: NCI-60 one-dose screen, 48 h; conditions: 10 µM unless noted
About 83,000 compounds went through this panel and 20% of them were active in at least one assay; those are over-represented in the sample as a whole. Activity calls are given as the source filed them. How the source made its calls: active means growth percent below 10; inactive means the rest.
Allowed answers: T = active, F = inactive

O=C(CN1C(=O)CCC1=O)Nc1ncc(Cc2ccc(F)cc2)s1 = F
CC(=O)n1nc(C(=O)OC(C)C)c2cc(C)c(C)cc21 = F
C#CCn1cnc2c(Nc3cccc(NC(=O)C=C)c3)ncnc21 = F

Ask | Check the results log: what was the call for `CCOC(=O)c1c(NC(=O)c2ccc(C(C)C)cc2)sc2c(CN(C)C)c(O)ccc12` ?
Reply | T

Ask | Please state the recorded outcome for this compound: `O=C(NNC(=O)c1ccc(-n2cc(-c3ccccc3)nn2)cc1)Nc1ccccc1`
Reply | F

Ask | Hi, do you know how `C=C(C)[C@@H]1CC[C@]2(C(=O)N3CCN(C)CC3)CC[C@]3(C)[C@H](CC[C@@H]4[C@@]5(C)CC(=C/c6ccncc6)/C(=N/O)C(C)(C)[C@@H]5CC[C@]43C)[C@@H]12` came out in this test?
Reply | F

Ask | Called result for Cc1cnc(C(=O)NNc2nc3sc4c(c3c(=O)n2C)C(C)CCC4)cn1 (stereo unspecified)
Reply | T

Ask | Per the records of this test, what outcome belongs to `CC(C)=NNc1ccccn1` ?
Reply | T

Ask | // return assay outcome for CC1Cc2c(Cl)ncnc2N(C)c2ccc(F)cc21 (stereo unspecified)
Reply | F

Ask | Could you kindly confirm the outcome this assay logged for `O=C(CCCCCCN1CC(=O)N2[C@H](c3cc(Br)cs3)c3[nH]c4ccccc4c3C[C@H]2C1=O)NO` ?
Reply | F

Ask | Recorded call for `COC(=O)c1c2c(c[n+]([O-])c1C)C(=O)C(NCc1ccccc1)=CC2=O` ?
Reply | T

###

tested on: UO-31 renal; test: NCI-60 one-dose screen, 48 h (100 = growth as untreated, 0 = no growth, -100 = all killed); conditions: 10 µM unless noted
The panel holds about 83,000 compounds, 20% with a hit somewhere; the sample as a whole holds those more often. Active and inactive are the calls of the source. Rule for the calls: active = growth percent below 10; inactive = the rest.
# reported growth; entries follow

Ask | Kindly indicate its recorded growth. Item: `O=[N+]([O-])/C(=C/C=C/c1ccccc1)c1ccccc1`
Reply | -44.4% (active)

###

Entries and their measured growth follow.
system: HOP-62 NSCLC; assay: NCI-60 one-dose screen, 48 h (100 = growth as untreated, 0 = no growth, -100 = all killed); conditions: 10 µM unless noted
The panel holds about 83,000 compounds, 20% with a hit somewhere; the sample as a whole holds those more often. Calls of active or inactive are those of the source. How the source made its calls: active means growth percent below 10; inactive means the rest.

# example entries with known answers
COc1cc(-c2csc(NC(=O)c3cc(-n4cnc(C)c4)cc(C(F)(F)F)c3)n2)cc(OC)c1OC = 72.4% (inactive)
CCOC(=O)Cn1c(O)c(N=Nc2ccc(S(N)(=O)=O)cc2)c2cc(Br)ccc21 = 65% (inactive)
Cc1ccc(Cl)cc1Nc1nc(C(F)(F)F)ccc1C(=O)N/N=C/c1cccnc1 = 29.4% (inactive)

Ask | # return recorded growth for entry `CN([O-])c1nc(N(C)[O-])nc(N2CCOCC2)n1.CN([O-])c1nc(N(C)[OH2+])nc(N2CCOCC2)n1.[Fe+3]`
Reply | 165% [100 µM] (inactive)

Ask | Item `Oc1ccc(CN2CCC(N3CCCCC3)CC2)c2cccnc12` : provide growth
Reply | 5.32% (active)

Ask | Identify the reported growth for the following entry. `COc1ccc2cc(-c3ccc(NC(C)=O)c(=O)o3)ccc2c1`
Reply | 94.3% (inactive)

Ask | Read the entry Cc1ccc(C(C(N)=O)C(C(N)=O)c2ccccc2)cc1 (centres undefined) and write its reported growth.
Reply | 111% (inactive)

Ask | Kindly indicate its recorded growth. Item: COc1cc2c(c(OC)c1OC)CCC(c1cccc(C(=O)Nc3cccc(Br)c3)c1)O2 (centres undefined)
Reply | 96.8% (inactive)

Hello, the source for this data is PubChem BioAssay (NCI), in case you need it.
